# study-target: M. tuberculosis Lumazine Synthase (Mycobacterium tuberculosis, UniProt P9WHE9)
# Sequence (P9WHE9 whole entry): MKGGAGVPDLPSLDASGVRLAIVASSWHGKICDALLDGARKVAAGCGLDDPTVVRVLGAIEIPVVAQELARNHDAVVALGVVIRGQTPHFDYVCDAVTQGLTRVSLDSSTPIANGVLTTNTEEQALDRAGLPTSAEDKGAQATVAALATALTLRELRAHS
# Format: biochemical
# setup-conditions: recombinant M. tuberculosis LS; fit of the compound's data set; pH 7.0
I'd appreciate it if you could supply kcat (rate constant ES → E + P) values for the items below.

Sample answers from the record:
| compound | kcat (rate constant ES → E + P) |
| --- | --- |
| O=c1[nH]c(/C=C/c2ccc(O)c([N+](=O)[O-])c2)c([N+](=O)[O-])c(=O)[nH]1 [Compound 36] | 0.00617 ± 0.00017 s⁻¹ |
| O=c1[nH]c(/C=C/c2cccc(O)c2)c([N+](=O)[O-])c(=O)[nH]1 [Compound 15] | 0.00383 ± 0.00017 s⁻¹ |
| O=C(O)c1ccc(/C=C/c2[nH]c(=O)[nH]c(=O)c2[N+](=O)[O-])cc1 [Compound 27] | 0.00588 ± 6.7e-05 s⁻¹ |
| COc1ccc(/C=C/c2[nH]c(=O)[nH]c(=O)c2[N+](=O)[O-])cc1OC [Compound 22] | 0.0055 ± 0.00017 s⁻¹ |
| COc1ccc([N+](=O)[O-])cc1/C=C/c1[nH]c(=O)[nH]c(=O)c1[N+](=O)[O-] [Compound 34] | 0.00633 ± 0.00017 s⁻¹ |

For each of the compounds below, note its kcat (rate constant ES → E + P).
1. O=c1[nH]c(/C=C/c2cc([N+](=O)[O-])ccc2O)c([N+](=O)[O-])c(=O)[nH]1 [Compound 32]
2. O=c1[nH]c(/C=C/c2ccc3ccccc3c2)c([N+](=O)[O-])c(=O)[nH]1 [Compound 43]
3. COc1ccc(/C=C/c2[nH]c(=O)[nH]c(=O)c2[N+](=O)[O-])cc1O [Compound 20]
4. COc1ccc(/C=C/c2[nH]c(=O)[nH]c(=O)c2[N+](=O)[O-])c(OC)c1OC [Compound 23]

0.0107 ± 0.0005 s⁻¹
0.00617 ± 0.00017 s⁻¹
0.00467 ± 0.00017 s⁻¹
0.00567 ± 0.00017 s⁻¹

---

# study-target: M. tuberculosis Lumazine Synthase (Mycobacterium tuberculosis)
# Assay type: biochemical
# setup-conditions: recombinant M. tuberculosis LS; fit of the compound's data set; pH 7.0
I'd appreciate it if you could supply kcat (rate constant ES → E + P) values for the items below.
Answers are plain numbers, in s⁻¹.

Sample answers from the record:
| molecular-string | readout-unit | reported-result |
| --- | --- | --- |
| O=c1[nH]c(/C=C/c2ccc([N+](=O)[O-])c(O)c2)c([N+](=O)[O-])c(=O)[nH]1 | s⁻¹ | 0.00633 |
| O=c1[nH]c(/C=C/c2cccnc2)c([N+](=O)[O-])c(=O)[nH]1 | s⁻¹ | 0.007 |
| O=c1[nH]c(/C=C/c2ccc(O)cc2)c([N+](=O)[O-])c(=O)[nH]1 | s⁻¹ | 0.00717 |
| O=c1[nH]c(/C=C/c2ccc(Cl)cc2)c([N+](=O)[O-])c(=O)[nH]1 | s⁻¹ | 0.00617 |
| O=C(O)c1ccc(/C=C/c2[nH]c(=O)[nH]c(=O)c2[N+](=O)[O-])c(O)c1 | s⁻¹ | 0.00667 |
| O=c1[nH]c(/C=C/c2ccc[nH]2)c([N+](=O)[O-])c(=O)[nH]1 | s⁻¹ | 0.00633 |

Now look at this one.
Read off the recorded kcat (rate constant ES → E + P) for O=c1[nH]c(/C=C/c2ccccc2O)c([N+](=O)[O-])c(=O)[nH]1
0.00433
